Exercise: state measured Kd for each of the binders provided.
Molecular target: T1, protease-associated domain of vacuolar sorting receptor isoform 1 (VSR1-PA) (Arabidopsis thaliana, UniProt P93026 20-182)
T1 sequence (looked up): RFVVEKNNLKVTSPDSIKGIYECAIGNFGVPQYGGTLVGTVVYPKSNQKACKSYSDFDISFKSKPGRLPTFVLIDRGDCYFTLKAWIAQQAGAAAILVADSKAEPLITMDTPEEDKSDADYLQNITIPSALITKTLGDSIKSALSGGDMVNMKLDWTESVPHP
Assay: differential scanning fluorimetry, isothermal analysis
The answer is to be given in µM; state only the numeric part.

Task: What Kd value was documented for this binder, YSDRFV [YSDRFV peptide derived from the ctVSD of VL22] ?
Result: 1000

Task: Lookup YRVAAA [C-terminal peptide of CRU1 (YRVAAA)]
Result: 2600
